assayed-system: T1, human LILRB5 (human, UniProt O75023 24-590)
T1 construct: Over-expressed on CHO-s cells; also called hLILRB5
T1 sequence (O75023 24-590 P542R limits assumed): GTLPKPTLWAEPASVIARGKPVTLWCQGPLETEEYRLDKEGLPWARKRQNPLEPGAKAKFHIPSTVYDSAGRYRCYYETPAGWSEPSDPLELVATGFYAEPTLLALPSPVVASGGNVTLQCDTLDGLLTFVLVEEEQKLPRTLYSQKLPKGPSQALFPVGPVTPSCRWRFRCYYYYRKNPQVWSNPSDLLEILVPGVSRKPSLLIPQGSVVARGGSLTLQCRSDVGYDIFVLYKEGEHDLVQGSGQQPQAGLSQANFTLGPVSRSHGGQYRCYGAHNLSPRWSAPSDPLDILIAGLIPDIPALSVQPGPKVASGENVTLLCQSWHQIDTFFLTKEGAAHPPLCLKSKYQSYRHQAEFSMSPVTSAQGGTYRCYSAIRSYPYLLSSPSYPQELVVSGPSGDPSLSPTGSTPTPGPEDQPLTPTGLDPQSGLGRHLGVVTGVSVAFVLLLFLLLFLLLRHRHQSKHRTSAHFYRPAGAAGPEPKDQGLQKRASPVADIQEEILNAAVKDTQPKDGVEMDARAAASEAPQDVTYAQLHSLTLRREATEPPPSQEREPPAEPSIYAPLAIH
assay-summary: flow cytometry, LILRB5 CHOs

{"binder": "J-19.h2 (antibody, human IgG4 S228P, kappa, V domains shown, Humanized, human IgG4 backbone) VH: QITLKESGPTLVKPTQTLTLTCTFSGFSLNTYAMGVSWIRQPPGKALEWLASIWWNGNKYNNPSLKSRLTVTKDTSKNQVVLTMTNMDPVDTATYYCAHSRIIRFTDYVMDAWGQGTLVTVSS VL: DIVMTQSPSSLSASVGDTVTITCRASEDIYNDLAWYQQKPGKAPQLLLYNANSLHTGVPSRFSGSGSGTDYTLTISTLQPEDFATYYCQQYYDYPLTFGPGTKVHIKR", "binding result": "no binding"}
{"binder": "J-19.h4 (antibody, human IgG4 S228P, kappa, V domains shown, Humanized, human IgG4 backbone) VH: QVTLKESGPALVKPTHTLTLTCTFSGFSLNTYAMGVSWIRQPPGKALEWLASIWWNGNKYNNPSLKSRLTISKDTSKNQVVLTMTNMDPEDTATFYCAHSRIIRFTDYVMDAWGRGTTVTVSS VL: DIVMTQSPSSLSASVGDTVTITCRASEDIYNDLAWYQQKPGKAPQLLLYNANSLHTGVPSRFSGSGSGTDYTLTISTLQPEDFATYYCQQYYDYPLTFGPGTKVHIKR", "binding result": "no binding"}
{"binder": "J-19.h3 (antibody, human IgG4 S228P, kappa, V domains shown, Humanized, human IgG4 backbone) VH: QVTLKESGPSLVKPTQTLTLTCTFSGFSLNTYAMGVSWIRQPPGKALEWLASIWWNGNKYNNPSLKSRLTITKDTSKNQVVLKVTNMDPADTATYYCAHSRIIRFTDYVMDAWGQGTTVTVSS VL: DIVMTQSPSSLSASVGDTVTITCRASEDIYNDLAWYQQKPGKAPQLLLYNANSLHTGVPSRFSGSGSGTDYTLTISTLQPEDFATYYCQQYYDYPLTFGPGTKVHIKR", "binding result": "no binding"}
{"binder": "J-19.h1 (antibody, human IgG4 S228P, kappa, V domains shown, Humanized, human IgG4 backbone) VH: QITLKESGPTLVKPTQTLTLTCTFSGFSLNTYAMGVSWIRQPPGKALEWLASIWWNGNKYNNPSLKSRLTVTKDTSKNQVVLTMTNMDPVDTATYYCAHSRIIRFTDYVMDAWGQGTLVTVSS VL: DIQMTQSPSSLSTSVGDRVTITCRASEDIYNDLAWYQQKPGKAPKLLIYNANSLHTGVASRFSGSGSGTDFTFTISSLQPEDVATYFCQQYYDYPLTFGQGTKLEIKR", "binding result": "no binding"}
